Provenance of the data: patent US10517889B2

# System: human SMAD7 mRNA
# procedure details: Antisense inhibition of human SMAD7 mRNA expression in Hep3B cells by 3-10-3 cEt gapmers, 10,000 nM, electroporation (Example 2)
# Assay type: cell-based
# condition context: Hep3B cells, electroporation with 10,000 nM antisense oligonucleotide, approximately 24 hours, primer probe set RTS5062, relative to untreated control cells
# Protocol: Antisense oligonucleotides were designed to target human SMAD7 mRNA and were tested for their effects on SMAD7 mRNA expression in vitro. […] After a treatment period of approximately 24 hours, RNA was isolated from the cells and SMAD7 mRNA levels were measured by quantitative real-time PCR. […] SMAD7 mRNA levels were adjusted according to total RNA content, as measured by RIBOGREEN®. […]
Strand notation (5' to 3'): a small letter for the sugar, then the base; units joined by * are phosphorothioate-linked, units joined directly phosphodiester-linked; [ ] holds rarer units or linkages, { } end groups; capitals alone tell only the bases. k = constrained ethyl (cEt); [5mC] = 5-methylcytosine; d = 2'-deoxy (DNA)
1 means recorded % inhibition of SMAD7 mRNA expression is 50% or above; -1 means it is below 50%.

* 798731 (antisense kG*kG*kT*dG*dG*dT*dG*dA*d[5mC]*d[5mC]*dT*dT*dT*kG*kG*k[5mC]) [compound 798731] | -1
* 799366 (antisense kT*k[5mC]*kT*d[5mC]*d[5mC]*dG*dA*dG*dT*dT*dA*dT*d[5mC]*k[5mC]*k[5mC]*k[5mC]) [compound 799366] | 1
* 798966 (antisense kT*kA*k[5mC]*d[5mC]*dT*dG*d[5mC]*d[5mC]*d[5mC]*d[5mC]*dT*dT*d[5mC]*kT*kT*k[5mC]) [compound 798966] | -1
* 798992 (antisense kA*k[5mC]*kT*d[5mC]*d[5mC]*dT*dG*dA*d[5mC]*dA*dA*dG*dT*kG*kA*kA) [compound 798992] | -1
* 799149 (antisense kG*kG*kA*dT*dG*dG*dT*dA*d[5mC]*d[5mC]*dT*dT*dG*kG*kG*kT) [compound 799149] | -1
* 799244 (kG*kG*kG*d[5mC]*d[5mC]*dA*d[5mC]*dT*dG*dG*dT*dG*dT*kT*k[5mC]*kG; antisense) [compound 799244] | -1

Request: Entry 799201 (antisense kT*kT*kT*dT*d[5mC]*dA*dG*dG*dA*dG*dT*d[5mC]*d[5mC]*kT*kT*kT) [compound 799201] : is its % inhibition of SMAD7 mRNA expression no less than 50%?
Response: -1

Request: Entry 798933 (antisense kG*k[5mC]*kA*d[5mC]*dT*d[5mC]*dA*dG*dG*dA*dG*dG*dA*kA*kA*kA) [compound 798933] : is its % inhibition of SMAD7 mRNA expression no less than 50%?
Response: 1
